Measured CLH, listed per entry.
Assay: Intrinsic clearance in mouse liver microsomes
Report the figure in µL/min/mg without appending any unit label.

Illustrative cases are given below, each with its answer.
{"columns": ["molecule", "value"],
 "data": [
  ["O=C1C[C@@H](CO)N2C(=O)c3ccccc3C2C(=O)Nc2ccccc21 (stereo partly specified)", 61.6],
  ["O=c1c2c([nH]c3ccccc13)C1c3ccccc3S(=O)(=O)N1C2 (stereo unspecified)", 45.8],
  ["COc1ccc2c(c1)C(=O)CCN1C(=O)c3ccccc3C1C(=O)N2 (stereo unspecified)", 280]
]}

[in] So what does the record say about CLH for O=C1Nc2ccccc2CCCN2C(=O)c3ccccc3C12 (stereo unspecified) ?
[out] 100

[in] Note, next up: CO/N=C1/CCN2C(=O)c3ccccc3C2C(=O)Nc2ccccc21 (stereo unspecified)
[out] 80.3

[in] Note, next up: O=C1CCn2c(nc3ccccc3c2=O)C(=O)Nc2ccccc21
[out] 38.2

====

Test: Lipophilicity, logD of compound at pH 7.4 by HPLC analysis
Type: physicochemical
Details: buffer
assayEndpoint: logD

Illustrative cases are given below, each with its answer.
{"columns": ["compound", "value"],
 "data": [
  ["O=C1CCN2C(=O)CCC2C(=O)Nc2ccccc21 (configuration not stated)", "< 0"],
  ["O=C1CCN2C(=O)[C@H]3CCCC[C@H]3C2C(=O)Nc2ccccc21 (some centres not stated)", 1.4],
  ["O=c1c2c([nH]c3ccccc13)C1c3ccccc3S(=O)(=O)N1C2 (configuration not stated)", 2],
  ["O=C1CCN2C(C(=O)Nc3ccccc31)c1ccccc1S2(=O)=O (configuration not stated)", 1.7],
  ["O=C1CCN2C(=O)c3ccccc3C2C(=O)Nc2cc(F)ccc21 (configuration not stated)", 1.4],
  ["CCOC(=O)c1ccc2c(c1)C(=O)CCN1C(=O)c3ccccc3C1C(=O)N2 (configuration not stated)", 2],
  ["O=C1Nc2ccccc2CCCN2C(=O)c3ccccc3C12 (configuration not stated)", 1.5],
  ["COc1ccc2c(c1)C(=O)CCN1C(=O)c3ccccc3C1C(=O)N2 (configuration not stated)", 1.5],
  ["COC(=O)[C@@H]1CC(=O)c2ccccc2NC(=O)C2c3ccccc3C(=O)N21 (some centres not stated)", 1.7],
  ["CC12C(=O)Nc3ccccc3C(=O)CCN1C(=O)c1ccccc12 (configuration not stated)", 1.7]
]}

[in] So what does the record say about logD for O=C1CCN2C(=O)c3cc(Cl)c(Cl)cc3C2C(=O)Nc2ccccc21 (configuration not stated) ?
[out] 2.4

[in] Note, next up: O=C1CCN2C(=O)c3ccccc3C2C(=O)Nc2ccc(F)cc21 (configuration not stated)
[out] 1.4

[in] Note, next up: O=C1Nc2ccccc2C2(O)CCN3C12c1ccccc1S3(=O)=O (configuration not stated)
[out] 1

[in] Note, next up: O=C1CCN2C(=O)c3ccccc3C2C(=O)Nc2ccccc21 (configuration not stated)
[out] 1.2

[in] Note, next up: COC1CCN2C(=O)c3ccccc3C2C(=O)Nc2ccccc21 (configuration not stated)
[out] 1.4

[in] Note, next up: COc1cc2c(cc1OC)C1C(=O)Nc3ccccc3C(=O)CCN1C2=O (configuration not stated)
[out] 1.2

[in] Note, next up: CO/N=C1/CCN2C(=O)c3ccccc3C2C(=O)Nc2ccccc21 (configuration not stated)
[out] 1.6
